system: HCC-2998 colon; experiment: NCI-60 one-dose screen, 48 h (100 = growth as untreated, 0 = no growth, -100 = all killed); conditions: 10 µM unless noted
About 83,000 compounds went through this panel and 20% of them were active in at least one assay; those are over-represented in the sample as a whole.
Quick rule for you: growth under 60% gets Met, anything else gets Not met.

Below are worked cases with known answers.
Molecule: CN[C@]12CC3(C=CC(=O)C=C3)O[C@@]1(Cc1ccc(OC)cc1)N(C)C(=O)N2
Cat: Met
--
Molecule: CCOc1ccc(NC(=O)CSc2oc(-c3ccccc3)nc2S(=O)(=O)c2ccc(F)cc2)cc1
Cat: Not met
--
Molecule: CCN1C(=O)N(CC)C2C1NN=c1s/c(=C\c3ccc(Cl)cc3Cl)c(=O)n12 (stereo not given)
Cat: Met
--
Molecule: CC(=O)N(N=Nc1ccccc1)c1cccc2ccccc12
Cat: Not met
--
Molecule: CCN1CC(=O)N(/N=C2\C(=O)Nc3ccccc32)C1=S
Cat: Not met

Query string: Is 60% strictly greater than the molecule's reported growth? molecule: COCCn1c(-c2csc(-c3cn(C)c4ccc(OC)cc34)n2)cc2cccnc21
Result string: Met

Query string: Is 60% strictly greater than the molecule's reported growth? molecule: C=C(C)[C@@H]1CC[C@]2(C(=O)N3CCN(C)CC3)CC[C@]3(C)[C@H](CC[C@@H]4[C@@]5(C)CC(=C/c6ccncc6)/C(=N/O)C(C)(C)[C@@H]5CC[C@]43C)[C@@H]12
Result string: Not met

Query string: Is 60% strictly greater than the molecule's reported growth? molecule: O=C1/C(=C/c2ccc(Cl)c(Cl)c2)CN(C(=O)C(Cl)Cl)C/C1=C\c1ccc(Cl)c(Cl)c1
Result string: Met

Query string: Is 60% strictly greater than the molecule's reported growth? molecule: Cc1nn(-c2ccccc2)c(Oc2ccccn2)c1-c1nc2ccccc2s1
Result string: Not met

Query string: Is 60% strictly greater than the molecule's reported growth? molecule: Cc1ccc(-c2nc3nc(-c4ccccc4)nc(N4CCNCC4)c3o2)cc1
Result string: Met

Query string: Is 60% strictly greater than the molecule's reported growth? molecule: CC(=O)n1nc(C(=O)OC(C)C)c2cc(C)c(C)cc21
Result string: Not met

Query string: Is 60% strictly greater than the molecule's reported growth? molecule: CCCCCCNC(=O)Oc1ccc(/C(=C(/C)Cc2ccc(OC)cc2)c2ccc(OCCCN(C)C)cc2)cc1
Result string: Met

Query string: Is 60% strictly greater than the molecule's reported growth? molecule: O=C1/C(=C/c2ccc(-c3ccc(Br)cc3)o2)SC(=S)N1CCc1ccc(O)cc1
Result string: Not met

Query string: Is 60% strictly greater than the molecule's reported growth? molecule: OCCOCCN(Cc1ccccn1)Cc1cc(I)cc(I)c1O
Result string: Not met

Query string: Is 60% strictly greater than the molecule's reported growth? molecule: COc1ccc(-c2nc3c(c(-c4ccccc4)nn3-c3ccccc3)c(-c3ccc(N4CCOCC4)cc3)c2C#N)cc1
Result string: Not met

Query string: Is 60% strictly greater than the molecule's reported growth? molecule: c1ccc(C2=NN[C@H](c3cn(-c4ccccc4)nc3-c3ccccc3)C2)cc1
Result string: Not met

Query string: Is 60% strictly greater than the molecule's reported growth? molecule: CCNc1nc(-c2ccc(Cl)c(OC)c2)c(-c2ccnc(NCCCNS(=O)(=O)c3ccc(Cl)cc3)n2)s1
Result string: Not met

Query string: Is 60% strictly greater than the molecule's reported growth? molecule: CCC(=C(c1ccc(OCCN2CCCC2)cc1)c1ccc(OCCN2CCCC2)cc1)c1ccc(Cl)cc1
Result string: Met

Query string: Is 60% strictly greater than the molecule's reported growth? molecule: Clc1ccc(CNc2c3ccccc3nc3ccccc23)cc1
Result string: Met

Query string: Is 60% strictly greater than the molecule's reported growth? molecule: Cc1ccc(Sc2nnc(/N=C3\C(=O)Nc4ccccc43)s2)cc1
Result string: Not met
